tested on: S. aureus VISA/HIP5827; experiment: MIC, broth microdilution, vancomycin-intermediate S. aureus VISA HIP5827; type: cell-based, Staphylococcus aureus; conditions: Staphylococcus aureus VISA/HIP5827; read-out: MIC
MIC values for the molecules below.
RECORDED_METRIC: MIC (µM)

CNC(CC(C)C)C(=O)NC1C(=O)NC(CC(N)=O)C(=O)NC2C(=O)NC3C(=O)NC(C(=O)NC(C(=O)NCC(=O)Nc4ccc(-c5ccccc5)cc4)c4cc(O)cc(O)c4-c4cc3ccc4O)C(O)c3ccc(c(Cl)c3)Oc3cc2cc(c3OC2OC(CO)C(O)C(O)C2OC2CC(C)(N)C(O)C(C)O2)Oc2ccc(cc2Cl)C1O (centres unmarked); 1.56
CN[C@H](CC(C)C)C(=O)N[C@H]1C(=O)N[C@@H](CC(N)=O)C(=O)N[C@H]2C(=O)N[C@H]3C(=O)N[C@H](C(=O)N[C@H](C(=O)NCC(=O)Nc4ccc(C)cc4)c4cc(O)cc(O)c4-c4cc3ccc4O)[C@H](O)c3ccc(c(Cl)c3)Oc3cc2cc(c3O[C@@H]2O[C@H](CO)[C@@H](O)[C@H](O)[C@H]2O[C@H]2C[C@](C)(N)[C@H](O)[C@H](C)O2)Oc2ccc(cc2Cl)[C@H]1O; 0.39

###

test system: human T-lymphocyte (CEM) cells; assay: Cytostatic activity, CEM cell proliferation; assay type: cell-based; details: mean ± SD of three experiments; highest concentration tested 250 µM; 3 days; read-out: Toxicity (IC50) CEM
pIC50: −log10 of the molar value.
Classify by measured pIC50: 1 if it is equal to or exceeds 5, 0 if it is smaller.

CNC(CC(C)C)C(=O)NC1C(=O)NC(CC(N)=O)C(=O)NC2C(=O)NC3C(=O)NC(C(=O)NC(C(=O)NCC(=O)Nc4ccc(-c5cnnn5C5OC(COC(C)=O)C(OC(C)=O)C(OC(C)=O)C5OC(C)=O)cc4)c4cc(O)cc(O)c4-c4cc3ccc4O)C(O)c3ccc(c(Cl)c3)Oc3cc2cc(c3OC2OC(CO)C(O)C(O)C2OC2CC(C)(N)C(O)C(C)O2)Oc2ccc(cc2Cl)C1O (centres unmarked); 0
CN[C@H](CC(C)C)C(=O)N[C@H]1C(=O)N[C@@H](CC(N)=O)C(=O)N[C@H]2C(=O)N[C@H]3C(=O)N[C@H](C(=O)N[C@H](C(=O)NCC(=O)Nc4cc(C)cc(C)c4)c4cc(O)cc(O)c4-c4cc3ccc4O)[C@H](O)c3ccc(c(Cl)c3)Oc3cc2cc(c3O[C@@H]2O[C@H](CO)[C@@H](O)[C@H](O)[C@H]2O[C@H]2C[C@](C)(N)[C@H](O)[C@H](C)O2)Oc2ccc(cc2Cl)[C@H]1O; 0
CN[C@H](CC(C)C)C(=O)N[C@H]1C(=O)N[C@@H](CC(N)=O)C(=O)N[C@H]2C(=O)N[C@H]3C(=O)N[C@H](C(=O)N[C@H](C(=O)NCC(=O)Nc4ccc5cc6ccccc6cc5c4)c4cc(O)cc(O)c4-c4cc3ccc4O)[C@H](O)c3ccc(c(Cl)c3)Oc3cc2cc(c3O[C@@H]2O[C@H](CO)[C@@H](O)[C@H](O)[C@H]2O[C@H]2C[C@](C)(N)[C@H](O)[C@H](C)O2)Oc2ccc(cc2Cl)[C@H]1O; 0
CN[C@H](CC(C)C)C(=O)N[C@H]1C(=O)N[C@@H](CC(N)=O)C(=O)N[C@H]2C(=O)N[C@H]3C(=O)N[C@H](C(=O)N[C@H](C(=O)NCCNC(=O)/C=C/c4cccc(OC)c4)c4cc(O)cc(O)c4-c4cc3ccc4O)[C@H](O)c3ccc(c(Cl)c3)Oc3cc2cc(c3O[C@@H]2O[C@H](CO)[C@@H](O)[C@H](O)[C@H]2O[C@H]2C[C@](C)(N)[C@H](O)[C@H](C)O2)Oc2ccc(cc2Cl)[C@H]1O; 0
CN[C@H](CC(C)C)C(=O)N[C@H]1C(=O)N[C@@H](CC(N)=O)C(=O)N[C@H]2C(=O)N[C@H]3C(=O)N[C@H](C(=O)N[C@H](C(=O)NCC(=O)Nc4ccc(Oc5ccccc5)cc4)c4cc(O)cc(O)c4-c4cc3ccc4O)[C@H](O)c3ccc(c(Cl)c3)Oc3cc2cc(c3O[C@@H]2O[C@H](CO)[C@@H](O)[C@H](O)[C@H]2O[C@H]2C[C@](C)(N)[C@H](O)[C@H](C)O2)Oc2ccc(cc2Cl)[C@H]1O; 0
CNC(CC(C)C)C(=O)NC1C(=O)NC(CC(N)=O)C(=O)NC2C(=O)NC3C(=O)NC(C(=O)NC(C(=O)NCC(=O)Nc4ccc(O)cc4)c4cc(O)cc(O)c4-c4cc3ccc4O)C(O)c3ccc(c(Cl)c3)Oc3cc2cc(c3OC2OC(CO)C(O)C(O)C2OC2CC(C)(N)C(O)C(C)O2)Oc2ccc(cc2Cl)C1O (centres unmarked); 0
CNC(CC(C)C)C(=O)NC1C(=O)NC(CC(N)=O)C(=O)NC2C(=O)NC3C(=O)NC(C(=O)NC(C(=O)NCCNC(=O)C=Cc4ccc(NS(=O)(=O)c5ccc(Cl)cc5)cc4)c4cc(O)cc(O)c4-c4cc3ccc4O)C(O)c3ccc(c(Cl)c3)Oc3cc2cc(c3OC2OC(CO)C(O)C(O)C2OC2CC(C)(N)C(O)C(C)O2)Oc2ccc(cc2Cl)C1O (centres unmarked); 0
CN[C@H](CC(C)C)C(=O)N[C@H]1C(=O)N[C@@H](CC(N)=O)C(=O)N[C@H]2C(=O)N[C@H]3C(=O)N[C@H](C(=O)N[C@H](C(=O)NCC(=O)Nc4ccc(-c5cn(-c6ccccc6)nn5)cc4)c4cc(O)cc(O)c4-c4cc3ccc4O)[C@H](O)c3ccc(c(Cl)c3)Oc3cc2cc(c3O[C@@H]2O[C@H](CO)[C@@H](O)[C@H](O)[C@H]2O[C@H]2C[C@](C)(N)[C@H](O)[C@H](C)O2)Oc2ccc(cc2Cl)[C@H]1O; 0
CNC(CC(C)C)C(=O)NC1C(=O)NC(CC(N)=O)C(=O)NC2C(=O)NC3C(=O)NC(C(=O)NC(C(=O)NCCCNC(=O)c4cc5ccccc5[nH]4)c4cc(O)cc(O)c4-c4cc3ccc4O)C(O)c3ccc(c(Cl)c3)Oc3cc2cc(c3OC2OC(CO)C(O)C(O)C2OC2CC(C)(N)C(O)C(C)O2)Oc2ccc(cc2Cl)C1O (centres unmarked); 0
C#Cc1ccc(-c2ccc(C(=O)NCCCNC(=O)[C@H]3NC(=O)[C@H]4NC(=O)[C@H](NC(=O)[C@@H]5NC(=O)[C@H](CC(N)=O)NC(=O)[C@H](NC(=O)[C@@H](CC(C)C)NC)[C@H](O)c6ccc(c(Cl)c6)Oc6cc5cc(c6O[C@@H]5O[C@H](CO)[C@@H](O)[C@H](O)[C@H]5O[C@H]5C[C@](C)(N)[C@H](O)[C@H](C)O5)Oc5ccc(cc5Cl)[C@H]4O)c4ccc(O)c(c4)-c4c(O)cc(O)cc43)cc2)cc1; 1
C#Cc1ccc(C=Cc2ccc(NC(=O)CNC(=O)C3NC(=O)C4NC(=O)C(NC(=O)C5NC(=O)C(CC(N)=O)NC(=O)C(NC(=O)C(CC(C)C)NC)C(O)c6ccc(c(Cl)c6)Oc6cc5cc(c6OC5OC(CO)C(O)C(O)C5OC5CC(C)(N)C(O)C(C)O5)Oc5ccc(cc5Cl)C4O)c4ccc(O)c(c4)-c4c(O)cc(O)cc43)cc2)cc1 (centres unmarked); 1

Every entry's value here was drawn from paper PMC6001238.
